Recorded values, source ChEMBL document CHEMBL4706577.

Test system: Trypanosoma brucei brucei
Experiment: Antitrypanosomal activity against bloodstream form of Trypanosoma brucei brucei 221 assessed as parasite growth inhibition incubated for 48 hrs by resazurin staining based assay
Type: functional, organism-based
Conditions: Trypanosoma brucei, 221, 48 h
pIC50: −log10 of the molar value.
READOUT LABEL: pIC50

// worked examples, pIC50 included
Cl.Cl.Fc1cc(-c2nc3cc(C4=NCCN4)ccc3[nH]2)ccc1OCc1cn(CCN2CCOCC2)nn1 = < 5.40
Cl.Cl.c1cc(-c2nc3cc(C4=NCCN4)ccc3[nH]2)ccc1OCc1cn(CCN2CCOCC2)nn1 = < 5.40

Query: What pIC50 value was documented for this compound, Cl.c1cc(-c2nc3cc(C4=NCCN4)ccc3[nH]2)ccc1OCc1c[nH]nn1 ?
Result: < 5.40
